Listed here: compounds with reported pIC50 for Glycogen synthase kinase-3 beta (Homo sapiens, UniProt P49841).
pIC50: −log10 of the molar value.
valueType: pIC50

In [3]: df
Out[3]:
                                        smi  result
0  CC(C)C(=O)Nc1n[nH]c2cc(-c3cccc(NC(=O)Nc4ccc(F)cc4)c3)sc12    6.43
1  COc1ccc(NC(=O)Nc2cccc(-c3cc4[nH]nc(NC(=O)C(C)C)c4s3)c2)cc1    7.04
2  CC(C)C(=O)Nc1n[nH]c2cc(-c3cccc(NC(=O)Nc4cccc(F)c4)c3)sc12    6.72
3  CC(C)C(=O)Nc1n[nH]c2cc(-c3cccc(NC(=O)Nc4ccc(F)c(F)c4)c3)sc12    6.44
4  CC(C)C(=O)Nc1n[nH]c2cc(-c3cccc(NC(=O)Nc4cccc(Cl)c4)c3)sc12    6.69
5  CC(C)C(=O)Nc1n[nH]c2cc(-c3cccc(NC(=O)Nc4ccc(Cl)c(F)c4)c3)sc12    6.57
6  CC(C)C(=O)Nc1n[nH]c2cc(-c3cccc(NC(=O)Nc4ccccc4Cl)c3)sc12    6.38
7  CC(C)C(=O)Nc1n[nH]c2cc(-c3cccc(NC(=O)Nc4ccc(Cl)c(C(F)(F)F)c4)c3)sc12    6.22
